Sourced from PubChem BioAssay (NCATS)

experiment: UWB1.289 Cancer Cell Toxicity qHTS against the NCATS CANVASS Library (AID 1347347); details: UWB1.289 viability, CellTiter-Glo luminescence, 72 h; series mostly up to 38.3 µM; further: nearly all actives have a fitted effect of over 60% in size; further: potency means the concentration at half of the fitted maximal effect
Results filed as inconclusive are left out. Activity calls are given as the source filed them. The call rests on the fitted dose curve; in most records, active means well fitted cell-killing curve with a large enough effect; inconclusive means small, poorly fitted or top-dose-only effect; inactive means flat fitted curve, though single readings scatter. Square brackets hold non-standard residues; d marks the D form. Peptide text beside a SMILES is read from it. * marks the point of attachment. ξ: configuration not given here. Hexanoyl = CCCCCC(=O)*; ξL = CC(C)CC(N)C(=O)O
propertyLabel: Potency

compound	Potency
C=C1CCC2C(C)(C(=O)O)CCC(CC/C(C)=C/C(=O)NC(CCC(N)=O)C(=O)O)[C@@]2(C)C1 (some centres undefined)	inactive
CC[C@@H](C)[C@H]1NC(=O)C(CC(C)C)NC(=O)[C@@H](CC(C)C)NC(=O)[C@H](Cc2c[nH]c3ccccc23)NC(=O)CNC(=O)[C@@H](CC(N)=O)NC1=O (stereo partly drawn) (cyclo(GW[dL][ξL][dI][dN]))	inactive
C/C=C/[C@H]1[C@H]2C(=O)c3c(O)c(C)c(O)c(C)c3[C@]1(C(=O)O)C(=O)C=C2C	inactive
CC[C@@H]1C[C@@]2(CC)OC(=O)[C@@]3(CC)[C@H](CC)[C@@H]1[C@@H]23	inactive
O=C1CC(c2ccc(O)cc2)Oc2ccccc21 (centres undefined)	3.75 µM (active)

# batch: return Potency for each of the 7 compounds below
1. CC(C)=CCC[C@]1(C)[C@H]2CC(=O)[C@@]3(CO3)[C@@H]1C2
2. O=C1c2c(O)cc(O)cc2OC(c2ccc(O)cc2)C1O (centres undefined)
3. COc1ccc(-c2oc3cc(OC)cc(OC)c3c(=O)c2O)cc1
4. C[n+]1cc2cc(C(N)=O)[nH]c3c(=N)c(Cl)c(N)c1c23
5. C=C[C@]1(C)CC[C@@H]([C@H](C)C(=O)CC=C(C)C)O1
6. CCCCCC(=O)N[C@@H](CC(C)C)C(=O)N[C@H](C=O)CCC(=O)O (Hexanoyl-Leu-Glu-aldehyde)
7. CN1C(=O)C(=O)N2C(=C[C@]3(c4c[nH]c5ccccc45)c4ccccc4N[C@H]23)C1=O

["inactive", "inactive", "18.8 µM (active)", "inactive", "inactive", "inactive", "inactive"]

# batch: return Potency for each of the 3 compounds below
1. C=C1C[C@H]2O[C@@H]3[C@@H]4[C@H](CC[C@@](C)(O)[C@@H]42)[C@H](C)COC3(C)[C@@H](OC(=O)CCCCCCC)CC1=O (some centres undefined)
2. COc1cc(O)c(C(=O)[C@@H]2[C@H](CC=C(C)C)C(C)=CC[C@H]2c2ccccc2)c(O)c1
3. C/C=C(/CO)C(=O)O[C@@H]1[C@H](O)[C@@H](C(=O)OC)O[C@@H]2C[C@H]3OC(n4cnc5c(N)ncnc54)[C@H](OC)[C@H]3O[C@@]12O (some centres undefined)

1: 18.8 µM (active); 2: 13.3 µM (active); 3: inactive

# batch: return Potency for each of the 4 compounds below
1. O=c1cc(-c2ccc(O)c(O)c2)oc2cc(O[C@@H]3O[C@H](CO)[C@@H](O)[C@H](O)[C@H]3O)cc(O)c12
2. O=C1OC(CCO)c2cccc(O)c21 (centres undefined)
3. COc1c(O)cc2c(c1O)C(=O)c1c(coc1C)C2=O
4. C=C[C@](Cl)(CBr)CCC=C(C)C

["1.18 µM (active)", "inactive", "inactive", "inactive"]

----------
Assay: qHTS drug screen for cell cycle checkpoint inhibitors in PARPi-resistant BRCA-mutant ovarian cancer cell lines. (AID 1963452)
Conditions: PEO1/OlaR viability, CellTiter-Glo luminescence, 96 h; measured here: PEO4 Z-AUC; stronger effect = lower value
Source text: Women's Malignancies Branch, Center for Cancer Research (CCR), National Cancer Institute (NCI), National Institutes of Health (NIH), Bethesda, MD Poly (ADP-ribose) polymerase inhibitors (PARPis) have changed the treatment paradigm in breast cancer gene (BRCA) - mutant high-grade serous ovarian carcinoma (HGSC). […] 6; Detection; Luminescence, PHERAstar (BMG Labtech) plate reader. […] 6. Luminescence readings were taken using PHERAstar (BMG Labtech). […]
propertyLabel: Z-AUC

Illustrative cases are given below, each with its answer.
sampleSmiles	propertyLabel	assayResult
C=CC(=O)Nc1cc(N2CCN(CC)CC2)ccc1Nc1cc(N(C)C(=O)Nc2c(Cl)c(OC)cc(OC)c2Cl)ncn1	Z-AUC	0.736
COc1cc2c(cc1OC)CN(CCc1ccc(-n3nnc(-c4cc(OC)c(OC)cc4NC(=O)c4cc(=O)c5ccccc5o4)n3)cc1)CC2	Z-AUC	2.67
CCC[C@H](NC(=O)/C(C#N)=C/c1cccc(Br)n1)c1ccccc1	Z-AUC	0.0816
CC(=O)N1CCN(c2ccc(NC(=O)Cc3cnc(-c4ccnc(F)c4)c(C)c3)nc2)CC1	Z-AUC	0.947
C[C@@]12C(=O)OC(=O)[C@]1(C)[C@H]1CC[C@@H]2O1	Z-AUC	0.28
C=C1C[C@H]2C=Nc3cc(OCCCOc4cc5c(cc4OC)C(=O)N4CC(=C)C[C@H]4C=N5)c(OC)cc3C(=O)N2C1	Z-AUC	0.852
CCC(=O)O[C@]1(C(=O)CO)CC[C@H]2[C@@H]3CCC4=CC(=O)CC[C@]4(C)[C@H]3CC[C@@]21C	Z-AUC	1.13

Field: next molecule
Name the recorded Z-AUC for `COc1cc(C(=O)O)ccc1NC(=O)[C@@H]1N[C@@H](CC(C)(C)C)[C@](C#N)(c2ccc(Cl)cc2F)[C@H]1c1cccc(Cl)c1F` .
1.24

----------
target: Ubiquitin carboxyl-terminal hydrolase 2 (Homo sapiens) (UniProt O75604); experiment: qHTS for Inhibitors of Ubiquitin-specific Protease USP2a Using CHOP2 as the Reporter: K484 Substrate (AID 652173); conditions: USP2 cleavage of DiUb K48 IQF substrate, fluorescence; series mostly up to 57.5 µM;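 further: cleavage of internally quenched K48 di-ubiquitin substrate measured as rising fluorescence over time; nearly all actives have a fitted effect of over 70% in size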
Sequence (O75604 whole entry, looked up): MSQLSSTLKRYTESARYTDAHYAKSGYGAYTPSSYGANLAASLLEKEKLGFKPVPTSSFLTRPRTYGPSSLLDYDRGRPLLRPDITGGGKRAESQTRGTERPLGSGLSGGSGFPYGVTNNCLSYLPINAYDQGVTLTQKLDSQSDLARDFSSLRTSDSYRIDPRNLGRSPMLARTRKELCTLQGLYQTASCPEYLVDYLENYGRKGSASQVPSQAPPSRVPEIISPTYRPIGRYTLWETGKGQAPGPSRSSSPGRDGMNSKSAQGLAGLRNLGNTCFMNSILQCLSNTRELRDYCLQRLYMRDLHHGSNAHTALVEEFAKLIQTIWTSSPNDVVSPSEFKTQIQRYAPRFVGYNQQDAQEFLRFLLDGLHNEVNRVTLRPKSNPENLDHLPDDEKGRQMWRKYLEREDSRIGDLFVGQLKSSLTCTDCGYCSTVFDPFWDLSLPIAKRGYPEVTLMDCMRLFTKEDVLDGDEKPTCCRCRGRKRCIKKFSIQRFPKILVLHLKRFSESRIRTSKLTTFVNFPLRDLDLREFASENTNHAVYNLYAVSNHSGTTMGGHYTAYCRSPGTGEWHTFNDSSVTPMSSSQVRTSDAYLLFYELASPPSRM
Inconclusive results are not listed. Active and inactive are the calls of the source. The call rests on the fitted dose curve; in most records, active means well fitted inhibition curve with a large enough effect; inconclusive means small, poorly fitted or top-dose-only effect; inactive means flat fitted curve, though single readings scatter.
Give your call using only these classes: YES = active, NO = inactive

molecule	measuredOn	discreteLabel
Clc1nc(CN2CCOCC2)nc2sc3c(c12)CCC3	Ubiquitin carboxyl-terminal hydrolase 2 (Homo sapiens) (UniProt O75604)	NO
Cc1ccc(-c2cc(C(=O)Nc3cccc4ccccc34)c3ccccc3n2)cc1C	Ubiquitin carboxyl-terminal hydrolase 2 (Homo sapiens) (UniProt O75604)	YES
CCOC(=O)C1CCC(C(=O)Nc2ccc([S+](=O)([O-])Nc3nccs3)cc2)CC1 (stereo not given)	Ubiquitin carboxyl-terminal hydrolase 2 (Homo sapiens) (UniProt O75604)	NO

Tell me the recorded outcome of this test for `O=C(Nc1nc(-c2ccccc2)cs1)c1cccc(NS(=O)(=O)c2nccs2)c1` .
YES

Tell me the recorded outcome of this test for `N#Cc1ccc(NS(=O)(=O)c2ccc(NC(=O)Cc3ccc(Cl)c(Cl)c3)cc2)cc1` .
YES

----------
test system: TAB109; test: qHTS profiling for inhibitors of Plasmodium falciparum proliferation (AID 504749); further: nearly all actives have a fitted effect of over 60% in size; settings: P. falciparum in erythrocytes, SYBR Green DNA, 72 h; series mostly up to 28.7 µM
Inconclusive results are not listed. Calls of active or inactive are those of the source. Calls come from the whole dose curve; as a rule, active = well fitted inhibition curve with a large enough effect; inconclusive = small, poorly fitted or top-dose-only effect; inactive = flat fitted curve, though single readings scatter.
Give your call using only these classes: t = active, f = inactive

compound	discreteLabel
Oc1ccc(/C=C\c2cc(O)cc(O)c2)cc1	f
C[C@@]12C(=O)OC(=O)[C@]1(C)[C@H]1CC[C@@H]2O1	t

Tell me the recorded outcome of this test for CC(C)C[C@H]1C(=O)N2CCCC2[C@]2(O)O[C@](NC(=O)[C@@H]3C=C4c5cccc6[nH]c(Br)c(c56)C[C@H]4N(C)C3)(C(C)C)C(=O)N12 (some centres undefined) .
t

Tell me the recorded outcome of this test for CN=C(N)NCCCC(N)C(=O)O (centres undefined) .
f

----------
test: NFAT Signaling Pathway (AID 444); conditions: Jurkat NFAT-bla M1, carbachol, beta-lactamase ratio, 5 h; at 7.69 µM (top of the series) unless noted;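 further: carbachol stimulus at about its EC50 of 1 µM final; on the % scale 0 is the no-effect control and ±100 the full control effect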
Inconclusive results are not listed.
Exercise: state measured activity change, negative = inhibition for each of the molecules provided.
Numbers only, in %.

sampleSmiles	activity change, negative = inhibition [%]
COCC(=O)N1CCC2(CC1)CN(Cc1ccc(C#N)cc1)C2	-16.7
COc1ccc(Oc2ncc3nc(-c4cn(C)c5ccccc45)c(=O)n(C4CC4)c3n2)cc1	9.91
CC(C)NC(=O)N1CC2(CCN(C(=O)c3ccncc3)CC2)C1	10.6
O=c1c(-c2ccccc2)nc2cnc(N3CCOCC3)nc2n1C1CC1	-1.33
CC(C)NC(=O)N1CCCC2(CCN(C(=O)c3ccncc3)CC2)C1	8.27
COc1ccc(-c2nc3cnc(N4CCOCC4)nc3n(C3CC3)c2=O)cc1	8.69

# batch: return activity change, negative = inhibition for each of the 5 molecules below
1. CN1CCN(c2ncc3nc(-c4cc(F)cc(F)c4)c(=O)n(C4CC4)c3n2)CC1
2. COCC(=O)N1CCC2(CCCN(C(=O)Nc3cccc(F)c3)C2)CC1
3. CC(=O)NCCNc1nc(-c2ccccc2Cl)nc2ccccc12
4. Cc1noc(C)c1-c1cc(NC2CCNCC2)ncn1
5. COc1ncc2nc(-c3ccc(F)cc3)c(=O)n(-c3ccccc3)c2n1

[-23.1, 3.84, -5.34, 8.17, -7.66]
